Biological target: Gonadotropin-releasing hormone receptor (Homo sapiens)
Assay: Inhibition of Tag-lite green-labeled agonist binding to terbium fluorophore-labeled human N-terminal SNAP-tag GnRh receptor expressed in HEK293 cells by TR-FRET assay
Assay type: cell-based
Endpoint Label: pIC50
Field pIC50 (float): negative decimal logarithm of the concentration in molar.

Asked: What measured pIC50 is associated with O=C(NCc1ncc(C(F)(F)F)cc1Cl)c1ccc2c(c1)C1(CCS(=O)(=O)CC1)[C@H](C1CC1)N2S(=O)(=O)c1ccc(F)cc1 [BAY-784] on Gonadotropin-releasing hormone receptor (Homo sapiens)?
Given back: 7.57

* * *

Catalogue of pIC50 values
Molecular target: Gonadotropin-releasing hormone receptor (Rattus norvegicus)
Assay: Antagonist activity at rat GnRH receptor expressed in CHO-K1 cells assessed as inhibition of LHRH-induced response preincubated for 20 mins followed by LHRH addition and measured after 60 mins by TR-FRET assay
Format: cell-based
In simple prose, pIC50 is minus the logarithm base ten of a concentration in moles per litre.

Compound: COc1ccc(S(=O)(=O)N2c3ccc(C(=O)NCc4ccccc4Cl)cc3C(C)(C)C2C)cc1 (stereo in doubt; form 1)
Test Target: Gonadotropin-releasing hormone receptor (Rattus norvegicus)
Reported: 6.14

Compound: COc1ccc(S(=O)(=O)N2c3ccc(C(=O)NCc4ccccc4Cl)cc3C3(CCN(C(C)=O)CC3)C2C)cc1 (stereo in doubt; form 2)
Test Target: Gonadotropin-releasing hormone receptor (Rattus norvegicus)
Reported: 7.54

Compound: COc1ccc(S(=O)(=O)N2c3ccc(C(=O)NCc4ccccc4Cl)cc3C(C)(C)C2C)cc1 (stereo in doubt; 1a)
Test Target: Gonadotropin-releasing hormone receptor (Rattus norvegicus)
Reported: 6.14

Compound: COc1ccc(S(=O)(=O)N2c3ccc(C(=O)NCc4ccccc4Cl)cc3C(C)(C)C2C)cc1 (racemic)
Test Target: Gonadotropin-releasing hormone receptor (Rattus norvegicus)
Reported: 5.85

Asked: Tell me reported pIC50 for CC1N(S(=O)(=O)c2ccc(F)cc2)c2ccc(C(=O)NCc3ccccc3Cl)cc2C12CCNCC2 (stereo in doubt; 3a) , tested with Gonadotropin-releasing hormone receptor (Rattus norvegicus).
Given back: 7.57

Asked: Also need O=C(NCc1ncccc1Cl)c1ccc2c(c1)C1(CCS(=O)(=O)CC1)C(C1CC1)N2S(=O)(=O)c1ccc(F)cc1 (stereo in doubt) , thanks.
Given back: 7.40

* * *

Target: Gonadotropin-releasing hormone receptor (Homo sapiens, UniProt P30968)
Sequence (P30968 whole entry): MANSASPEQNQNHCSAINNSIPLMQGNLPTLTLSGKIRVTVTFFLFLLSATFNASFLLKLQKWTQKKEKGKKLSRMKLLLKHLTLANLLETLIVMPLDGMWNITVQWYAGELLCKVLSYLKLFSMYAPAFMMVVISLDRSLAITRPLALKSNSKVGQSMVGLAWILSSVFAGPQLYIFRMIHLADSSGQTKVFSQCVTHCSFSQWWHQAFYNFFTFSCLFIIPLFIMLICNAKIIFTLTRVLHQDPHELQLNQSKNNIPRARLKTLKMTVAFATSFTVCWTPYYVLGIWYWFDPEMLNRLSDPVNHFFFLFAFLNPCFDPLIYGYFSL
Assay: Antagonist activity at human GnRH receptor expressed in CHO-K1 cells assessed as inhibition of LHRH-induced response preincubated for 20 mins followed by LHRH addition and measured after 60 mins by TR-FRET assay
Format: cell-based
Label key: yes means IC50 under 60 nM; no means IC50 of 60 nM or more.

Compound: O=C(NCc1ccccn1)c1ccc2c(c1)C1(CCS(=O)(=O)CC1)C(C1CC1)N2S(=O)(=O)c1ccc(F)cc1 (racemic)
Qualitative Label: no

Asked: Below 60 nM on IC50? Entry COc1ccc(S(=O)(=O)N2c3ccc(C(=O)NCc4ccccc4Cl)cc3C(C)(C)C2C)cc1 (stereo in doubt; 1a)
Given back: no

Asked: Next compound: CC(=O)N1CCC2(CC1)c1cc(C(=O)NCc3ncccc3Cl)ccc1N(S(=O)(=O)c1ccc(F)cc1)C2C (single isomer, unassigned)
Given back: yes

Asked: Entry `CC(=O)N1CCC2(CC1)CN(S(=O)(=O)c1ccc(F)cc1)c1ccc(C(=O)NCc3ccccc3Cl)cc12` please
Given back: no

Asked: Please answer likewise for O=C(Nc1ccc2c(c1)C1(CC[S+]([O-])CC1)C(C1CC1)N2S(=O)(=O)c1ccc(F)cc1)c1cccnc1 (stereo not drawn)
Given back: yes

Asked: And for CC(=O)N1CCC2(CC1)c1cc(C(=O)NC3(c4ccccc4Cl)CC3)ccc1N(S(=O)(=O)c1ccc(F)cc1)C2C1CC1 (racemic) ?
Given back: no

Asked: // query: CC(=O)N1CCC2(CC1)c1cc(C(=O)NCc3ccccc3Cl)ccc1N(S(=O)(=O)c1ccc(F)cc1)C2C1CC1 (racemic)
Given back: yes

Asked: Ok, now COc1ccc(S(=O)(=O)N2c3ccc(C(=O)NCc4ccccc4Cl)cc3C3(CCN(C(C)=O)CC3)C2C)cc1 (stereo in doubt; form 1)
Given back: no

* * *

Biological target: Gonadotropin-releasing hormone receptor (Homo sapiens, UniProt P30968)
Test: Antagonist activity at human GnRH receptor expressed in CHO-K1 cells assessed as inhibition of buserelin-induced response preincubated for 20 mins followed by buserelin addition and measured after 60 mins by TR-FRET assay
Type: cell-based
pIC50: −log10 of the molar value.
Lab note: compare pIC50 against 7. Equal or greater, write TRUE. Smaller, write FALSE.

Recorded results for 2 molecules are shown here.
Molecule: O=C(NCc1ncccc1Cl)c1ccc2c(c1)C1(CCS(=O)(=O)CC1)C(C1CC1)N2S(=O)(=O)c1ccc(F)cc1 (racemic)
Test Target: Gonadotropin-releasing hormone receptor (Homo sapiens, UniProt P30968)
Qualitative Label: FALSE
//
Molecule: N=S1(=O)CCC2(CC1)c1cc(NC(=O)c3cccnc3)ccc1N(S(=O)(=O)c1ccc(F)cc1)C2C1CC1 (stereo in doubt; form 2)
Test Target: Gonadotropin-releasing hormone receptor (Homo sapiens, UniProt P30968)
Qualitative Label: TRUE

Asked: Entry O=C(NCc1ncc(C(F)(F)F)cc1Cl)c1ccc2c(c1)C1(CCS(=O)(=O)CC1)C(C1CC1)N2S(=O)(=O)c1ccc(F)cc1 (stereo in doubt) : is its pIC50 no less than 7?
Given back: FALSE

Asked: Try this molecule next: COc1ccc(S(=O)(=O)N2c3ccc(C(=O)NCc4ccccc4Cl)cc3C(C)(C)C2C)cc1 (stereo in doubt; form 2)
Given back: FALSE

Asked: Same lookup for O=C(Nc1ccc2c(c1)C1(CC[S+]([O-])CC1)C(C1CC1)N2S(=O)(=O)c1ccc(F)cc1)c1cccnc1 (stereo unspecified) , please.
Given back: TRUE

Asked: Same for CC1N(S(=O)(=O)c2ccc(F)cc2)c2ccc(C(=O)NCc3ccccc3Cl)cc2C12CCNCC2 (stereo in doubt)
Given back: FALSE

Asked: Please do the same for COc1ccc(S(=O)(=O)N2c3ccc(C(=O)NCc4ccccc4Cl)cc3C(C)(C)C2C)cc1 (stereo in doubt; form 1) as well.
Given back: FALSE

Asked: Now give it for C=CCC1N(S(=O)(=O)c2ccc(F)cc2)c2ccc(C(=O)NCc3ccccc3Cl)cc2C12CCN(C(C)=O)CC2 (racemic) too.
Given back: TRUE

Asked: Subsequent entry: CC(=O)N1CCC2(CC1)c1cc(C(=O)NCc3ncccc3Cl)ccc1N(S(=O)(=O)c1ccc(F)cc1)C2C (single isomer, unassigned)
Given back: TRUE

Asked: # repeat for O=C(NCc1ccccn1)c1ccc2c(c1)C1(CCS(=O)(=O)CC1)C(C1CC1)N2S(=O)(=O)c1ccc(F)cc1 (racemic)
Given back: FALSE

* * *

Biological target: Gonadotropin-releasing hormone receptor (Rattus norvegicus, UniProt P30969)
Sequence (P30969 whole entry): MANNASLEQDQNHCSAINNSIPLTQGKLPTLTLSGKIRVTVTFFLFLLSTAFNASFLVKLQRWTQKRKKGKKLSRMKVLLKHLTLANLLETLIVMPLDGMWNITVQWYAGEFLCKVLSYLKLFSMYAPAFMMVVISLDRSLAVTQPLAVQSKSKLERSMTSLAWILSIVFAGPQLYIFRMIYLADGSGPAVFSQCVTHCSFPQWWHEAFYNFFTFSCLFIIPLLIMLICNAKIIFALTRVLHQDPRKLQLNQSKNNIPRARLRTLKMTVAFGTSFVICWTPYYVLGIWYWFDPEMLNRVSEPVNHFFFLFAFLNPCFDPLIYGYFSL
Experiment: Antagonist activity at rat GnRH receptor expressed in CHO-K1 cells assessed as inhibition of buserelin-induced response preincubated for 20 mins followed by buserelin addition and measured after 60 mins by TR-FRET assay
Format: cell-based
Endpoint Label: log10(IC50) (log10 of the value in nM)
Hey, these are logged values: log10 of IC50, nM being the unit before logging.

Check out these entries, answers already filled in.
Compound: COc1ccc(S(=O)(=O)N2c3ccc(C(=O)NCc4ccccc4Cl)cc3C(C)(C)C2C)cc1 (stereo in doubt; form 1)
Endpoint Label: log10(IC50)
Reported: 3.05
//
Compound: COc1ccc(S(=O)(=O)N2c3ccc(C(=O)NCc4ccccc4Cl)cc3C(C)(C)C2C)cc1 (racemic)
Endpoint Label: log10(IC50)
Reported: 3.69
//
Compound: COc1ccc(S(=O)(=O)N2c3ccc(C(=O)NCc4ccccc4Cl)cc3C(C)(C)C2C)cc1 (stereo in doubt; 1a)
Endpoint Label: log10(IC50)
Reported: 3.04
//
Compound: O=C(NCc1ncc(C(F)(F)F)cc1Cl)c1ccc2c(c1)C1(CCS(=O)(=O)CC1)[C@H](C1CC1)N2S(=O)(=O)c1ccc(F)cc1 [BAY-784]
Endpoint Label: log10(IC50)
Reported: 1.38
//
Compound: COc1ccc(S(=O)(=O)N2c3ccc(C(=O)NCc4ccccc4Cl)cc3C3(CCN(C(C)=O)CC3)C2C)cc1 (stereo in doubt; form 2)
Endpoint Label: log10(IC50)
Reported: 1.53

Kindly consider the entry below.
Asked: Query (compound): CC1N(S(=O)(=O)c2ccccc2)c2ccc(C(=O)NCc3ccccc3Cl)cc2C1(C)C (racemic) ; field requested: log10(IC50)
Given back: 3.68

* * *

Biological target: Cytochrome P450 3A4 (Homo sapiens)
Sequence (P08684 whole entry): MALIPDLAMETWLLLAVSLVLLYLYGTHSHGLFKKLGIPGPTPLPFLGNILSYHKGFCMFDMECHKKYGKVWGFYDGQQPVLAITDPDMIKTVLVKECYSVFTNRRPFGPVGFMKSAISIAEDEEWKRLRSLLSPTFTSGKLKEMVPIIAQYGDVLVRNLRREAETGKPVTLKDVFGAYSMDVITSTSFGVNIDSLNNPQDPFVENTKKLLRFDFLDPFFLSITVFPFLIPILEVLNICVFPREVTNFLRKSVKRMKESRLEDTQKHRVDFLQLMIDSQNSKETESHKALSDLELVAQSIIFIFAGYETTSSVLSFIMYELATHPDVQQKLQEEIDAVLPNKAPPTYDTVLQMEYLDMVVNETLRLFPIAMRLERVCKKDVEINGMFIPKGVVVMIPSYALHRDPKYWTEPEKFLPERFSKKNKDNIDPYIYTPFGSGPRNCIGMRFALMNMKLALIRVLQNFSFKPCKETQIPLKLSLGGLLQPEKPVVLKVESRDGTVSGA
Assay: Irreversible inhibition of CYP3A4 in human liver microsomes using midazolam as substrate
Format: ADME
Endpoint Label: IC50

Asked: I am curious: what IC50 value has been reported for O=C(NCc1ncc(C(F)(F)F)cc1Cl)c1ccc2c(c1)C1(CCS(=O)(=O)CC1)[C@H](C1CC1)N2S(=O)(=O)c1ccc(F)cc1 [BAY-784] ?
Given back: > 10 µM
